Source listed as PubChem BioAssay AID1963867.

system: KRAS-mutant PDC tumor spheroid with HUVEC/MSC, viability; test: Anticancer human tumor 327498-153-R-J2-PDC patient-derived uterine carcinosarcoma cell line growth inhibition [KRAS2]; details: second compound 0.316 µM; first compound 0.00316 µM; stronger effect = lower value;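 further: spheroids exposed to agents for seven days before reading; 100% = DMSO vehicle wells so lower means fewer viable cells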
Entries and their measured viability, T/C follow.

{"Compound": "CC(=O)Nc1cccc(-n2c(=O)n(C3CC3)c(=O)c3c(Nc4ccc(I)cc4F)n(C)c(=O)c(C)c32)c1 + CC1OCC2(CCN(c3cnc(Sc4ccnc(N)c4Cl)c(N)n3)CC2)C1N", "viability, T/C (%)": 40.8}
{"Compound": "CC(=O)Nc1cccc(-n2c(=O)n(C3CC3)c(=O)c3c(Nc4ccc(I)cc4F)n(C)c(=O)c(C)c32)c1 + C=CC(=O)N1CCN(c2nc(=O)n(-c3c(C)ccnc3C(C)C)c3nc(-c4c(O)cccc4F)c(F)cc23)C(C)C1", "viability, T/C (%)": 51.5}
{"Compound": "Cn1ncnc1[C@H]1c2n[nH]c(=O)c3cc(F)cc(c23)N[C@@H]1c1ccc(F)cc1 + C=CC(=O)N1CCN(c2nc(=O)n(-c3c(C)ccnc3C(C)C)c3nc(-c4c(O)cccc4F)c(F)cc23)C(C)C1", "viability, T/C (%)": 49.1}
{"Compound": "CCN1CCN(Cc2ccc(Nc3ncc(F)c(-c4cc(F)c5nc(C)n(C(C)C)c5c4)n3)nc2)CC1 + CC1OCC2(CCN(c3cnc(Sc4ccnc(N)c4Cl)c(N)n3)CC2)C1N", "viability, T/C (%)": 42.5}
{"Compound": "CC(C)n1nc(-c2ccc3oc(N)nc3c2)c2c(N)ncnc21 + C=CC(=O)N1CCN(c2nc(=O)n(-c3c(C)ccnc3C(C)C)c3nc(-c4c(O)cccc4F)c(F)cc23)C(C)C1", "viability, T/C (%)": 26.1}
{"Compound": "CN(C)C/C=C/C(=O)Nc1cc2c(Nc3ccc(F)c(Cl)c3)ncnc2cc1O[C@H]1CCOC1 + CC1OCC2(CCN(c3cnc(Sc4ccnc(N)c4Cl)c(N)n3)CC2)C1N", "viability, T/C (%)": 53.5}
{"Compound": "CC(=O)Nc1cccc(-n2c(=O)n(C3CC3)c(=O)c3c(Nc4ccc(I)cc4F)n(C)c(=O)c(C)c32)c1 + CNCc1ccccc1-c1csc(C(C)Nc2nc(C)nc3cc(OC)c(OC)cc23)c1", "viability, T/C (%)": 51.3}
{"Compound": "CCN1CCN(Cc2ccc(Nc3ncc(F)c(-c4cc(F)c5nc(C)n(C(C)C)c5c4)n3)nc2)CC1 + CNCc1ccccc1-c1csc(C(C)Nc2nc(C)nc3cc(OC)c(OC)cc23)c1", "viability, T/C (%)": 69.4}
{"Compound": "CC(C)n1nc(-c2ccc3oc(N)nc3c2)c2c(N)ncnc21 + C=CC(=O)N1CCN(c2nc(OCC3CCCN3C)nc3c2CCN(c2cccc4cccc(C)c24)C3)CC1CC#N", "viability, T/C (%)": 28.8}
{"Compound": "CN(C)C/C=C/C(=O)Nc1cc2c(Nc3ccc(F)c(Cl)c3)ncnc2cc1O[C@H]1CCOC1 + C=CC(=O)N1CCN(c2nc(=O)n(-c3c(C)ccnc3C(C)C)c3nc(-c4c(O)cccc4F)c(F)cc23)C(C)C1", "viability, T/C (%)": 97}
{"Compound": "CC(C)n1nc(-c2ccc3oc(N)nc3c2)c2c(N)ncnc21 + CNCc1ccccc1-c1csc(C(C)Nc2nc(C)nc3cc(OC)c(OC)cc23)c1", "viability, T/C (%)": 56}
{"Compound": "Cn1ncnc1[C@H]1c2n[nH]c(=O)c3cc(F)cc(c23)N[C@@H]1c1ccc(F)cc1 + COc1cc2nc(C)nc(NC(C)c3cc(N)cc(C(F)(F)F)c3)c2cc1OC1CCOC1", "viability, T/C (%)": 68.6}
{"Compound": "CCN1CCN(Cc2ccc(Nc3ncc(F)c(-c4cc(F)c5nc(C)n(C(C)C)c5c4)n3)nc2)CC1 + C=CC(=O)N1CCN(c2nc(OCC3CCCN3C)nc3c2CCN(c2cccc4cccc(C)c24)C3)CC1CC#N", "viability, T/C (%)": 40.5}
{"Compound": "CC(C)n1nc(-c2ccc3oc(N)nc3c2)c2c(N)ncnc21 + CC1OCC2(CCN(c3cnc(Sc4ccnc(N)c4Cl)c(N)n3)CC2)C1N", "viability, T/C (%)": 28.2}
{"Compound": "CC(C)n1nc(-c2ccc3oc(N)nc3c2)c2c(N)ncnc21 + COc1cc2nc(C)nc(NC(C)c3cc(N)cc(C(F)(F)F)c3)c2cc1OC1CCOC1", "viability, T/C (%)": 46.5}
{"Compound": "CN(C)C/C=C/C(=O)Nc1cc2c(Nc3ccc(F)c(Cl)c3)ncnc2cc1O[C@H]1CCOC1 + C=CC(=O)N1CCN(c2nc(OCC3CCCN3C)nc3c2CCN(c2cccc4cccc(C)c24)C3)CC1CC#N", "viability, T/C (%)": 45.2}
{"Compound": "Cn1ncnc1[C@H]1c2n[nH]c(=O)c3cc(F)cc(c23)N[C@@H]1c1ccc(F)cc1 + C=CC(=O)N1CCN(c2nc(OCC3CCCN3C)nc3c2CCN(c2cccc4cccc(C)c24)C3)CC1CC#N", "viability, T/C (%)": 49.8}
{"Compound": "CCN1CCN(Cc2ccc(Nc3ncc(F)c(-c4cc(F)c5nc(C)n(C(C)C)c5c4)n3)nc2)CC1 + COc1cc2nc(C)nc(NC(C)c3cc(N)cc(C(F)(F)F)c3)c2cc1OC1CCOC1", "viability, T/C (%)": 61}
{"Compound": "CCN1CCN(Cc2ccc(Nc3ncc(F)c(-c4cc(F)c5nc(C)n(C(C)C)c5c4)n3)nc2)CC1 + C=CC(=O)N1CCN(c2nc(=O)n(-c3c(C)ccnc3C(C)C)c3nc(-c4c(O)cccc4F)c(F)cc23)C(C)C1", "viability, T/C (%)": 49.6}
{"Compound": "CN(C)C/C=C/C(=O)Nc1cc2c(Nc3ccc(F)c(Cl)c3)ncnc2cc1O[C@H]1CCOC1 + COc1cc2nc(C)nc(NC(C)c3cc(N)cc(C(F)(F)F)c3)c2cc1OC1CCOC1", "viability, T/C (%)": 64}
{"Compound": "CC(=O)Nc1cccc(-n2c(=O)n(C3CC3)c(=O)c3c(Nc4ccc(I)cc4F)n(C)c(=O)c(C)c32)c1 + C=CC(=O)N1CCN(c2nc(OCC3CCCN3C)nc3c2CCN(c2cccc4cccc(C)c24)C3)CC1CC#N", "viability, T/C (%)": 48}
